Target: Follistatin (Homo sapiens)
Experiment: follistatin binders on small-molecule microarrays, primary screen, biochemical, small-molecule microarray, 635/667 nm fluorescence (AID 1132)
Conditions: FST binding, 635 nm fluorescence, higher = more signal
measurement_type: composite z-score

[[record]]
compound = "COC(=O)C1=CC(CCCO)=CC(C2CC2)N(Cc2cc3c(cc2Br)OCO3)C=C1C(=O)OC (stereo not drawn)"
test_target = "Follistatin (Homo sapiens)"
measurement_type = "composite z-score"
result_value = -0.107

[[record]]
compound = "CC(C)C(=C=CC[C@@H](O)c1ccc(CO)o1)CCO"
test_target = "Follistatin (Homo sapiens)"
measurement_type = "composite z-score"
result_value = 0.987

[[record]]
compound = "COc1ccc([Si](C)(C)[C@@H]2[C@@H](CCn3cc(CCO)nn3)O[C@]3(C(=O)N(Cc4ccc(N5C(=O)c6cccc7cccc5c67)cc4)c4ccccc43)[C@H]2C)cc1"
test_target = "Follistatin (Homo sapiens)"
measurement_type = "composite z-score"
result_value = 0.499

[[record]]
compound = "CCCC[C@@H](O)C1=C(C)C[C@H]2C(=O)N(C)C(=O)[C@H]2[C@H]1CO"
test_target = "Follistatin (Homo sapiens)"
measurement_type = "composite z-score"
result_value = 0.186

[[record]]
compound = "C=C(C(=O)CC[C@@H](OC(C)=O)c1ccccc1OCCO)C(C)C"
test_target = "Follistatin (Homo sapiens)"
measurement_type = "composite z-score"
result_value = 0.164

[[record]]
compound = "C/C=C/[C@@H](CCn1cc(CCO[Si](C(C)C)(C(C)C)C(C)C)nn1)[Si](C)(C)c1ccc(OC)cc1"
test_target = "Follistatin (Homo sapiens)"
measurement_type = "composite z-score"
result_value = -2.11

[[record]]
compound = "C=CCOC(=O)[C@H]1[C@@H]2C(=O)O[C@@H](c3ccccc3)[C@@H](c3ccccc3)N2[C@@H](c2ccc(OCCOC(=O)[C@H]3C[C@H]4C(=O)N5CCC[C@H]5C(=O)N4[C@H]3c3cccc(OCCO)c3)cc2)[C@]12C(=O)Nc1ccccc12"
test_target = "Follistatin (Homo sapiens)"
measurement_type = "composite z-score"
result_value = 1.34

[[record]]
compound = "Cc1ccc(S[C@]2(C(=O)NC3CC3)CC(=O)N(Cc3ccccc3C(F)(F)F)[C@@H]2c2ccc(CO)cc2I)cc1"
test_target = "Follistatin (Homo sapiens)"
measurement_type = "composite z-score"
result_value = 1.25

[[record]]
compound = "O=C(O)[C@H]1C[C@H]2C(=O)NCC(=O)N2[C@H]1c1cccc(OCCO)c1"
test_target = "Follistatin (Homo sapiens)"
measurement_type = "composite z-score"
result_value = 1.27

[[record]]
compound = "CC(C)[Si](C#C[Si](C(C)C)(C(C)C)C(C)C)(O[C@H](C)c1cn([C@H](C)c2ccccc2)nn1)C(C)C"
test_target = "Follistatin (Homo sapiens)"
measurement_type = "composite z-score"
result_value = 0.465

[[record]]
compound = "COc1ccc(/C=C/C(=O)c2cccc(OCC(=O)OC(C)(C)C)c2)cc1"
test_target = "Follistatin (Homo sapiens)"
measurement_type = "composite z-score"
result_value = -0.708

[[record]]
compound = "CCCNC(=O)[C@@H]1c2ccccc2C(=O)N(Cc2cc(C(F)(F)F)cc(C(F)(F)F)c2)[C@H]1c1ccc(CO)cc1"
test_target = "Follistatin (Homo sapiens)"
measurement_type = "composite z-score"
result_value = 0.652

[[record]]
compound = "CCOC(=O)C[C@H]1[C@H](OC(=O)c2cc3ccccc3oc2=O)[C@@H](NC(=O)c2ccccc2)c2cc(OCCCO)ccc2N1C(=O)Cc1ccc(OC)cc1"
test_target = "Follistatin (Homo sapiens)"
measurement_type = "composite z-score"
result_value = 0.856

[[record]]
compound = "COCCCNC(=O)[C@@]1(Cc2ccccc2CN=[N+]=[N-])COC(c2ccc(OCCCO)cc2)=N1"
test_target = "Follistatin (Homo sapiens)"
measurement_type = "composite z-score"
result_value = 0.186

[[record]]
compound = "O=C1O[C@H](c2ccccc2)[C@H](c2ccccc2)N2[C@H]1[C@@H](C(=O)NC[C@H](O)c1ccccc1)[C@]1(C(=O)Nc3ccc(C#CC4(O)CCCCCC4)cc31)[C@H]2c1ccc(O)cc1"
test_target = "Follistatin (Homo sapiens)"
measurement_type = "composite z-score"
result_value = 1.31

[[record]]
compound = "COC(=O)C1=CC(c2ccc(CO)cc2)=CC(c2cccs2)N(C)C=C1C(=O)OC (stereo not drawn)"
test_target = "Follistatin (Homo sapiens)"
measurement_type = "composite z-score"
result_value = 0.23

[[record]]
compound = "C#CCOc1ccc(C[C@H]2C(=O)O[C@H](Cc3ccccc3)[C@H](/C=C/C3CC3)N2CC#C)cc1"
test_target = "Follistatin (Homo sapiens)"
measurement_type = "composite z-score"
result_value = -0.322

[[record]]
compound = "O=C1N(CCS(=O)(=O)c2ccccc2)Cc2ccccc2[C@@H]2OC(c3ccc(OCCCO)cc3)=N[C@]12Cc1ccccc1"
test_target = "Follistatin (Homo sapiens)"
measurement_type = "composite z-score"
result_value = 1.34

[[record]]
compound = "C=C(COC)/C(=C/C[C@H](OC(C)=O)c1ccc(CO)o1)c1cnc2ccccc2c1"
test_target = "Follistatin (Homo sapiens)"
measurement_type = "composite z-score"
result_value = 1.42

[[record]]
compound = "CC(C)(C)OC(=O)CC[C@@]12N=C(c3ccc(OCCCO)cc3)O[C@@H]1c1ccccc1CN(Cc1ccccc1)C2=O"
test_target = "Follistatin (Homo sapiens)"
measurement_type = "composite z-score"
result_value = 1.32

[[record]]
compound = "CO[C@H]1O[C@H](CO)[C@@H](OC(=O)CCc2ccccc2)[C@@H]2OC(=O)[C@H](Cc3ccccc3)C/C=C/C[C@@H](Cc3ccccc3)C(=O)O[C@@H]12"
test_target = "Follistatin (Homo sapiens)"
measurement_type = "composite z-score"
result_value = -0.618

[[record]]
compound = "CCOC(=O)C[C@H]1[C@H](OC(=O)c2ccc(-c3ccccc3)cc2)[C@@H](NC(=O)c2ccccc2)c2cc(OCCCO)ccc2N1C(=O)c1ccccc1"
test_target = "Follistatin (Homo sapiens)"
measurement_type = "composite z-score"
result_value = -0.129

[[record]]
compound = "COCCCNC(=O)[C@@]1(CCS(=O)(=O)c2ccccc2)N=C(c2ccc(OCCCO)cc2)O[C@H]1c1ccccc1CN=[N+]=[N-]"
test_target = "Follistatin (Homo sapiens)"
measurement_type = "composite z-score"
result_value = 1.4

[[record]]
compound = "Cc1ccc(S[C@]2(C(=O)NCCN3CCOCC3)CC(=O)N(Cc3cc(C(F)(F)F)cc(C(F)(F)F)c3)[C@@H]2c2ccc(CO)cc2)cc1"
test_target = "Follistatin (Homo sapiens)"
measurement_type = "composite z-score"
result_value = -1.09

[[record]]
compound = "COC(=O)C(CC#Cc1ccc2c(c1)[C@]1(C(=O)N2)[C@H](C(N)=O)[C@H]2C(=O)O[C@H](c3ccccc3)[C@H](c3ccccc3)N2[C@@H]1c1ccc(O)cc1)C(=O)OC"
test_target = "Follistatin (Homo sapiens)"
measurement_type = "composite z-score"
result_value = -0.919

[[record]]
compound = "COC(=O)C(CC#Cc1ccc2c(c1)[C@]1(C(=O)N2)[C@H](C(=O)O)[C@H]2C(=O)O[C@H](c3ccccc3)[C@H](c3ccccc3)N2[C@@H]1c1ccc(OCCO)cc1)C(=O)OC"
test_target = "Follistatin (Homo sapiens)"
measurement_type = "composite z-score"
result_value = 0.0447

[[record]]
compound = "C=CCNC(=O)[C@@H]1[C@H]2C(=O)O[C@H](c3ccccc3)[C@H](c3ccccc3)N2[C@H](c2ccc(O)cc2)[C@@]12C(=O)Nc1ccccc12"
test_target = "Follistatin (Homo sapiens)"
measurement_type = "composite z-score"
result_value = 0.981

[[record]]
compound = "C=CCNC(=O)[C@H]1[C@@H]2C(=O)O[C@@H](c3ccccc3)[C@@H](c3ccccc3)N2[C@@H](c2ccc(OCCO)cc2)[C@]12C(=O)Nc1ccc(C#CCCO)cc12"
test_target = "Follistatin (Homo sapiens)"
measurement_type = "composite z-score"
result_value = 1.3

